tgt: Feline_OSMR_hlgG1_Fc (feline)
Sequence (chain, as listed by the source limits assumed, form in doubt): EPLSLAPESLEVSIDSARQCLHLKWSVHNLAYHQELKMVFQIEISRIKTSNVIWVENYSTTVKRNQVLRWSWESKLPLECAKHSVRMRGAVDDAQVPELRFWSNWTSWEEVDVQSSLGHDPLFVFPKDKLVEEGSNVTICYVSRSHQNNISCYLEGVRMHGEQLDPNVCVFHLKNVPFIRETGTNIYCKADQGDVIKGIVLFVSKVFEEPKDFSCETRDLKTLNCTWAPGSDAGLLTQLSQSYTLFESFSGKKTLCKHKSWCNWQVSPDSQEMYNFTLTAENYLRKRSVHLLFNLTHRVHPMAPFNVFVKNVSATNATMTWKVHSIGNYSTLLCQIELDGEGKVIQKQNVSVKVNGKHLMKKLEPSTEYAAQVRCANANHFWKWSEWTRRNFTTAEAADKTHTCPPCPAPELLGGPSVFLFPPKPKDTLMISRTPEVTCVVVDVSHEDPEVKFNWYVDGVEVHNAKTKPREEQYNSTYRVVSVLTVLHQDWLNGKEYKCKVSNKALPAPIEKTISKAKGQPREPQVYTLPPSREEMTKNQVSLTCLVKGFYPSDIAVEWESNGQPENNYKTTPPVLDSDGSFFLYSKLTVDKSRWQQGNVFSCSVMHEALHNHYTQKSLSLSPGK
protocol.notes: SPR Biacore
In this section we review reported kon values for a set of binders.

| binder | kon |
| --- | --- |
| Mu_19F07_VL (SEQ ID NO: 49)_T53A (antibody, V domains shown) VH: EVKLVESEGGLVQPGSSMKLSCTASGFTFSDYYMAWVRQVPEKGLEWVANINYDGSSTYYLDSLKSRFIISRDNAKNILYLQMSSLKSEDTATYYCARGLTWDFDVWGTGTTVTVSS VL: DIVMTQSHKFMSPSVGDRVSITCKASQDVDTAVAWYQQKPGQSPKLLIYLASARHTGVPDRFTGSGSGTDFTLTISNVQSEDLADYFCQQYSRFPLTFGAGTKLELKR | 169000 M⁻¹ s⁻¹ |
| Mu_02D09_VH (SEQ ID NO: 31)_Y101A (antibody, V domains shown) VH: EVQLVESGGGLVKPGGSLTLSCAASGFTFSDYGMHWLRQAPEKGLEWVAYISSGSRAVFFADTVKGRFTISRDNAKNTLFLQMTSLRSDDTAMYYCARDRADGRGFAYWGQGTLVTVSA VL: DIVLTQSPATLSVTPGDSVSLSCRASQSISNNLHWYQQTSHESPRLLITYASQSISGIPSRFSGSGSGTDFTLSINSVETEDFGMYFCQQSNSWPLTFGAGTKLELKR | 169000 M⁻¹ s⁻¹ |
| Mu_02D09_VH (SEQ ID NO: 31)_Y50A (antibody, V domains shown) VH: EVQLVESGGGLVKPGGSLTLSCAASGFTFSDYGMHWLRQAPEKGLEWVAAISSGSRAVFFADTVKGRFTISRDNAKNTLFLQMTSLRSDDTAMYYCARDRYDGRGFAYWGQGTLVTVSA VL: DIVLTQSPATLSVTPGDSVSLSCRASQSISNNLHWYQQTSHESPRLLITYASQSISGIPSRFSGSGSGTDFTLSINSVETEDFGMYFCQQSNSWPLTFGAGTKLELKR | 100000 M⁻¹ s⁻¹ |
| Mu_02D09_VH (SEQ ID NO: 31)_Y32A (antibody, V domains shown) VH: EVQLVESGGGLVKPGGSLTLSCAASGFTFSDAGMHWLRQAPEKGLEWVAYISSGSRAVFFADTVKGRFTISRDNAKNTLFLQMTSLRSDDTAMYYCARDRYDGRGFAYWGQGTLVTVSA VL: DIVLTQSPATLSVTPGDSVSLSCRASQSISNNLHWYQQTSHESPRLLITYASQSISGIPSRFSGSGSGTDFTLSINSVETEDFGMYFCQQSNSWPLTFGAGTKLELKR | 120000 M⁻¹ s⁻¹ |
| Mu_19F07_VL (SEQ ID NO: 49)_L50A (antibody, V domains shown) VH: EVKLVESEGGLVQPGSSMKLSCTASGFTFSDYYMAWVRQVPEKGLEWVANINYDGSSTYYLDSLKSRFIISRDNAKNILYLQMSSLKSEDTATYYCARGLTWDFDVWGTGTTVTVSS VL: DIVMTQSHKFMSPSVGDRVSITCKASQDVDTAVAWYQQKPGQSPKLLIYAASTRHTGVPDRFTGSGSGTDFTLTISNVQSEDLADYFCQQYSRFPLTFGAGTKLELKR | 41100 M⁻¹ s⁻¹ |
